Test system: PCT
EXPERIMENT_DESCRIPTION: Second library screening for PCT detection, clone supernatants, retest with CTZ-h (Example 4)
Assay type: biochemical, human
CONDITION_SET: luminescence signal value with MBP-PCT 3.3 ng/ml; large subunit-rSCFV5 12.5 nM; CTZ-h 25 µM, 60 s
Parameter threshold = 9000. Response is criterion met when PCT+ meets or exceeds it, else criterion not met.

VSGYRLFDRKS [RC-228]
criterion met
VEGYRLFEKIS [RC-036]
criterion not met

Inquiry: // inclusive: PCT+ at least 9000? input: VDGYRLFEKVS [RC-263]
Reply text: criterion not met

Inquiry: // inclusive: PCT+ at least 9000? input: VEGWRLFDRKS [RC-232]
Reply text: criterion met

Inquiry: // inclusive: PCT+ at least 9000? input: VNGWRLFDKKS [RC-271]
Reply text: criterion not met

Inquiry: // inclusive: PCT+ at least 9000? input: VSGYRLFDKVS [RC-114]
Reply text: criterion not met

Inquiry: // inclusive: PCT+ at least 9000? input: VSGYRIFEKKS [RC-152]
Reply text: criterion met

Inquiry: // inclusive: PCT+ at least 9000? input: VTGYRLFEEIL [P114, reference compound]
Reply text: criterion not met

Inquiry: // inclusive: PCT+ at least 9000? input: VSGYRLFDRVS [RC-032]
Reply text: criterion met

Inquiry: // inclusive: PCT+ at least 9000? input: VSGWRIFDRKS [RC-041]
Reply text: criterion met

Inquiry: // inclusive: PCT+ at least 9000? input: VSGYRLFDKKW [RC-261]
Reply text: criterion not met

Inquiry: // inclusive: PCT+ at least 9000? input: VDGWRLFDKKS [RC-103]
Reply text: criterion not met

Inquiry: // inclusive: PCT+ at least 9000? input: VEGYRLFEKIS [RC-239]
Reply text: criterion met

====

Tested on: PCT
EXPERIMENT_DESCRIPTION: Luciferase dual-antibody complementary activation assay for PCT detection, clone supernatants, retest with CTZ-h (Example 1)
Format: biochemical, human
CONDITION_SET: luminescence signal value with MBP-PCT 3.3 ng/ml; large subunit-rSCFV5 50 nM; supernatant; retest CTZ-h 25 µM, read after 60 s
Parameter threshold = 50000. Response is t when PCT+ meets or exceeds it, else f.

Worked examples follow.
VSGWRIHEKIS [RA120]
t
VEGYRLFERKW [RB276]
f
VEGYRLFERKW [RB035]
t

Inquiry: // inclusive: PCT+ at least 50000? input: VEGYRLFERKS [RB097]
Reply text: t

Inquiry: // inclusive: PCT+ at least 50000? input: VEGYRLFNRVS [RB027]
Reply text: t

Inquiry: // inclusive: PCT+ at least 50000? input: VEGYRLFDRKL [RB135]
Reply text: f

Inquiry: // inclusive: PCT+ at least 50000? input: VEGYRLFNRKS [RB075]
Reply text: t

Inquiry: // inclusive: PCT+ at least 50000? input: VEGYRLFDRVW [RB128]
Reply text: f

====

Test system: PCT
EXPERIMENT_DESCRIPTION: Luciferase dual-antibody complementary activation assay for PCT detection, clone supernatants, retest with CTZ-h (Example 1)
Type: biochemical, human
CONDITION_SET: luminescence signal value with MBP-PCT 3.3 ng/ml; large subunit-rSCFV5 50 nM; supernatant; retest CTZ-h 25 µM, read after 60 s
REPORTED_PROPERTY: PCT+
// print number alone

VEGYRLFDRKW [RB186]
27190
VEGYRLFEKVW [RB172]
41446

Inquiry: Entry VEGYRLFNKKS [RB054] has what PCT+?
Reply text: 92160

Inquiry: Entry VEGYRLFERIW [RB240] has what PCT+?
Reply text: 50183

Inquiry: Entry VEGYRLFNRVG [RB122] has what PCT+?
Reply text: 55355

Inquiry: Entry VEGYRLFERVL [RB150] has what PCT+?
Reply text: 53945

Inquiry: Entry VEGWRLHEKIS [RA116] has what PCT+?
Reply text: 55957

Inquiry: Entry VEGYRLFEKKL [RB149] has what PCT+?
Reply text: 79060

Inquiry: Entry VEGYRLFDRKL [RB212] has what PCT+?
Reply text: 33103

Inquiry: Entry VEGYRLFNEKS [RB195] has what PCT+?
Reply text: 41519

Inquiry: Entry VEGYRLFKREL [RB152] has what PCT+?
Reply text: 37150

Inquiry: Entry VDGWRLHEKIS [RA141] has what PCT+?
Reply text: 30623

Inquiry: Entry VEGYRLFDRKS [RB073] has what PCT+?
Reply text: 46672
